Cited source: paper PMC9454457

# TEST_DESCRIPTION: Biodistribution in PC-3 tumor-bearing CB17-SCID mice
# Type: in vivo
# CONDITION_NOTES: CB17-SCID, mouse, muscle, intravenous, total radioactivity; 24 h after injection, 100 pmol, n = 4; read-out: Biodistribution, Muscle
# Experimental: A detailed description of tumor inoculation is provided in the supplemental materials. Approximately 2–5 MBq (100 pmol, 150 μL) of the ^177Lu-labeled GRPR ligands were injected into the tail vein of anesthetized (2% isoflurane) PC-3 tumor–bearing mice (biodistribution, n = 4; imaging, n = 1). For biodistribution studies, organs were removed, weighed, and measured in a γ-counter (Perkin Elmer) after euthanasia at 24 h after injection. […]

{"columns": ["COMPOUND", "U", "tissue uptake at 24 h"],
 "data": [
  ["CC(C)CC(CC(C)C)NC(=O)[C@H](Cc1cnc[nH]1)NC(=O)CNC(=O)[C@@H](NC(=O)[C@H](C)NC(=O)[C@H](Cc1c[nH]c2ccccc12)NC(=O)[C@H](CCC(N)=O)NC(=O)[C@@H](Cc1ccccc1)NC(=O)COCC(=O)Nc1ccc(CNC(=O)CN2CCN(CC(=O)O)CCN(CC(=O)O)CCN(CC(=O)O)CC2)cc1)C(C)C [^177Lu-NeoBOMB1, metal not drawn, reference compound]", "%ID/g", 0.01]
]}
